- target or test system: UniProt P56817
- Sequence (P56817 46-501): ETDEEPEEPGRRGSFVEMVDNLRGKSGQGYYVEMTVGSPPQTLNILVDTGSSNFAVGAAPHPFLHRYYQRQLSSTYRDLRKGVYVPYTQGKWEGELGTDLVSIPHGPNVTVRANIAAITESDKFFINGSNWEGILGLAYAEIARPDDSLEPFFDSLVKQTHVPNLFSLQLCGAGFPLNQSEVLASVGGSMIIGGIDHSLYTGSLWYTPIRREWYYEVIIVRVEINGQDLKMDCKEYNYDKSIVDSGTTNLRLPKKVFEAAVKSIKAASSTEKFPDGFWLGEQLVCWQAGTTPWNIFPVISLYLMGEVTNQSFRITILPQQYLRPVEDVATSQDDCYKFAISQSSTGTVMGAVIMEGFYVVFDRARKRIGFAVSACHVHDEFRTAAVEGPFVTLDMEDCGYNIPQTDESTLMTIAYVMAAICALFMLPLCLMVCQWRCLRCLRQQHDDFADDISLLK
- method description: Cellular Aβ-lowering assay (Abeta 40 AlphaLISA)
- applied conditions: HEK293 APP cells, 18-20 hrs incubation, Aβ 40 in culture supernatants; read-out: BACE1 cell act. Aβ40, IC50
- Description: Cellular Aβ-Lowering Assay: The Abeta 40 AlphaLISA Assay can be used. […] In a Perkin-Elmer White Optiplate-384 (Cat#6007290), 2 ul culture supernatants were combined with 2 μl of a 10× AlphaLISA Anti-hAβAcceptor beads+Biotinylated Antibody Anti-Aβ 1-40 Mix (50 μg/mL/5 nM). […] Light Emission at 615 nm was then recorded using EnVision-Alpha Reader. Levels of Aβ 40 in the culture supernatants were calculated as percentage of maximum signal (cells treated with 1% DMSO without inhibitor). […]
Threshold-based label: IC50 under 1 nM gives true, IC50 not under 1 nM gives false.

> print(dat)
                               smiles.input  classification
1  C[C@@]1(c2cc(NC(=O)c3ccc(C#N)cn3)ccc2F)CSCC(N)=N1           false
2  C[C@@]1(c2cc(NC(=O)c3ccc(Cl)cn3)ccc2F)CS(=O)(=O)CC(N)=N1           false
3  C[C@@]1(c2cc(NC(=O)c3ccc(OC(F)F)cn3)ccc2F)CS(=O)(=O)CC(N)=N1           false
4  C[C@@]1(c2cc(NC(=O)c3ccc(C#N)cn3)ccc2F)CS(=O)(=O)CC(N)=N1           false
5  CC1(C)C(N)=N[C@](C)(c2cc(NC(=O)c3ccc(C#N)cn3)ccc2F)CS1(=O)=O            true
